Sourced from patent US12545685B2

Listing of recorded IC50 by entry.
- measurement-target: Mdm2/p53 binding (GST-Mdm2 / His-p53) (Homo sapiens, UniProt Q00987, L33E)
- Construct: Mdm2 partial protein having Mdm2 amino acids at positions 25 to 108
- Sequence (Q00987 25-108 L33E): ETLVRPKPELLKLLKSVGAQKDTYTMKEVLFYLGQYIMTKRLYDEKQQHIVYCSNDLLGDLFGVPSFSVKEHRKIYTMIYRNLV
- experimental-details: Mdm2/p53 binding assay (HTRF, His-p53 and GST-Mdm2)
- condition-notes: His-p53 (aa 1-132) and GST-Mdm2 (aa 25-108, L33E) 6.25 nM each; 25°C, 1 hour; values given as ranges

Reference set (5 entries):
molecule	IC50
O=C(N[C@@H]1CC[C@@H](CO)OC1)[C@@H]1NC2(CC(CF)(CF)C2)[C@@]2(C(=O)Nc3cc(Cl)ccc32)[C@H]1c1ccnc(Cl)c1F	50 to 100 nM
CC1(C)CCC2(CC1)N[C@@H](C(=O)N[C@@H]1CC[C@@H](c3n[nH]c(=O)o3)OC1)[C@H](c1ccnc(Cl)c1F)[C@]21C(=O)Nc2cc(Cl)ccc21	1 to 50 nM
CC1(C)CCC2(CC1)N[C@@H](C(=O)N[C@@H]1CC[C@@H](CCO)OC1)[C@H](c1ccnc(Cl)c1F)[C@]21C(=O)Nc2cc(Cl)ccc21	50 to 100 nM
C[C@H]1O[C@H](CO)CC[C@H]1NC(=O)[C@@H]1NC2(CCC(C)(C)CC2)[C@@]2(C(=O)Nc3cc(Cl)ccc32)[C@H]1c1ccnc(Cl)c1F	1 to 50 nM
CC(=O)Nc1cc(Cl)cc([C@H]2[C@H](C(=O)N[C@H]3CC[C@H](O)CC3)NC3(CCC(C)(C)CC3)[C@@]23C(=O)Nc2cc(Cl)ccc23)c1	50 to 100 nM

Sure, the documented IC50 for CC1(C)CCC2(CC1)N[C@@H](C(=O)N[C@H]1CC[C@H](O)CC1)[C@H](c1cccc(Cl)c1F)[C@]21C(=O)Nc2cc(Cl)ccc21 (relative stereo) is 50 to 100 nM

Sure, the documented IC50 for CO[C@@H]1C[C@@H](NC(=O)[C@@H]2NC3(CCC(C)(C)CC3)[C@@]3(C(=O)Nc4nc(Cl)ccc43)[C@H]2c2cccc(Cl)c2F)CO[C@@H]1CO is 1 to 50 nM
